B1: SPOPL (parent)
chain: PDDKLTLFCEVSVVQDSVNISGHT

# Variants of: B1
# Assay details: protein stability index of a GFP-peptide fusion (GPS, HEK-293T) (PSI 1-6); higher = more stable;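 further: lentivirally expressed fusions sorted by FACS into six bins by GFP to DsRed ratio, PSI derived from sequencing read proportions per bin multiplied by bin number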
# Study conditions: c terminus: a fixed tail appended
Measured protein stability index determines class: bin 1 = under 2, bin 2 = from 2 up to 3, bin 3 = 3 and over

{"Variant notation": "T24E", "Qualitative label": "bin 3"}

Band for the recorded protein stability index of `D3I` ? bin 2

Param item: `S21N` bin 2

Param item: `V18K` bin 2

Param item: `H23R` bin 2

Param item: `S12G` bin 1

Param item: `I20D` bin 3

Param item: `L7E` bin 3

Param item: `G22E` bin 3

Param item: `V14T` bin 1
